Below is a list of entries, each paired with its recorded Sox 17 Intensity average value.
- Tested on: H1 or H9 human embryonic stem cells
- assay procedure: Activin A bioassay: differentiation of human embryonic stem cells to definitive endoderm, cell number and SOX17 intensity by high content analysis (96-well, four days);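 also: total fluorescence of the cell multiplied by cell area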
- Type: cell-based
- test conditions: supernatant concentration 10x, assay dilution 1:20
- Procedure: Activin A is an important mediator of differentiation in a broad range of cell types. […] A bioassay that measures this differentiation in human embryonic stem cells was adapted in miniaturized format to 96-well plates for screening purposes. […] Imaging was performed using an IN Cell Analyzer 1000 (GE Healthcare) utilizing the 51008bs dichroic for cells stained with Hoechst 33342 and Alexa Fluor 488. […] Averages and standard deviations were calculated for each replicate data set. […]
// no unit, no text: just the number

Given item ACTN59: activin A variant peptide, SEQ ID 60 (protein) GLECDGKVNICCKKQLFGQTKDIGWNDWIIAPSGYHGGGCTGECPSHIAGTSGSSLSFHSTVINHYRMRGHSPNANLKSCCAPTKLRPMSMLYYDDGQNIIKKDIQGMKVEECGCV , the value recorded as its Sox 17 Intensity average is 2.11E+06

Given item ACTN9: activin A variant peptide, SEQ ID 10 (protein) GLECDGKVNYCCKKQDFVSFKDIGWNDWIIAPSGYHANKCTGKCPSHIAGTSGSSLSFHSTVINHYRMRGHSPFADLGACCIPTKLRPMSMLYYDDGQNIIKKDIQNMIVEECGCS , the value recorded as its Sox 17 Intensity average is 6.63E+05

Given item ACTN38: activin A variant peptide, SEQ ID 39 (protein) GLECDGKVNLCCKKQDFVSFKDIGWNDWIIAPSGYHANKCGGKCPSHIAGTSGSSLSFHSTVINHYRMRGHSPFSQLGACCVPTKLRPMSMLYYDDGQNIIKKDIQNMIVEECGCS , the value recorded as its Sox 17 Intensity average is 3.89E+05
